# System: α-glucosidase (the present enzyme) from Bacillus sp. KS-108a (FERM BP-5337)
# Format: biochemical
# applied.conditions: 0.01 ml of 22 mM inhibitor added to 0.1 ml enzyme in 100 mM HEPES-NaOH pH 7.0 with 0.2% BSA, 25° C., 1 hour; then diluted 100-fold, activity on PNPG; control = 100
endpoint.name: remaining activity (%)
Respond with the figure and its unit, in that order.

Ask | // fetch α-glucosidase (the present enzyme) from Bacillus sp. KS-108a (FERM BP-5337) remaining activity (%) for CCN1C(=O)C=CC1=O [N-ethylmaleimide]
Reply | 107.5%

Ask | // fetch α-glucosidase (the present enzyme) from Bacillus sp. KS-108a (FERM BP-5337) remaining activity (%) for O[C@H](CS)[C@H](O)CS (racemic) [dithiothreitol]
Reply | 105.4%

Ask | // fetch α-glucosidase (the present enzyme) from Bacillus sp. KS-108a (FERM BP-5337) remaining activity (%) for O=C(O)c1cc[c]([Hg][Cl])cc1 [PCMB, p-chloromercuribenzoic acid]
Reply | 97.7%

Ask | // fetch α-glucosidase (the present enzyme) from Bacillus sp. KS-108a (FERM BP-5337) remaining activity (%) for OCCS [2-mercaptoethanol]
Reply | 99.6%

Ask | // fetch α-glucosidase (the present enzyme) from Bacillus sp. KS-108a (FERM BP-5337) remaining activity (%) for O=C(O)c1ccccc1[N+](=O)[O-] [2-nitrobenzoic acid]
Reply | 102.7%

Ask | // fetch α-glucosidase (the present enzyme) from Bacillus sp. KS-108a (FERM BP-5337) remaining activity (%) for [N-]=[N+]=[N-] [sodium azide]
Reply | 105.0%

Ask | // fetch α-glucosidase (the present enzyme) from Bacillus sp. KS-108a (FERM BP-5337) remaining activity (%) for c1cnc2c(c1)ccc1cccnc12 [o-phenanthroline]
Reply | 99.4%
